Listing of entries alongside the reported Size.
method.summary: Hydrodynamic size / size distribution by dynamic light scattering
Format: physicochemical
run.conditions: Malvern Zetasizer Nano ZS90, mean ± SD
Ends that are not written are not given here. HPMA copolymer = HPMA copolymer made by RAFT copolymerization of HPMA with N-(3-aminopropyl)methacrylamide (APMA), bearing maleimide groups for grafting

substance: P-CM2: HPMA copolymer-CM2 conjugate, ~12 CM2 grafts per polymer (C(HPMA copolymer)YGGEVSALEKEVSALEKKNSALEKEVSALEKEVSALEK; also: CM2 N-terminal cysteine joined to a maleimide of the HPMA copolymer backbone, ~12 per polymer)
Size [nm]: 19.2
//
substance: P-PS-CM2: HPMA backbone grafted with CM2 and chlorin e6 photosensitizer (C(HPMA copolymer)YGGEVSALEKEVSALEKKNSALEKEVSALEKEVSALEK; also: chlorin e6 photosensitizer on polymer)
Size [nm]: 25.8
//
substance: P-CM2-Cy3: Cy3-labeled P-CM2 (C(HPMA copolymer)YGGEVSALEKEVSALEKKNSALEKEVSALEKEVSALEK; also: Cy3 label on conjugate, position not given here)
Size [nm]: 20.4
//
substance: P-BS-PS: BS-multivalently-modified polymer-PS conjugate (LGASWHRPDKCCLGYQKRPLPA; not fully specified (residues 11, 12); cysteine pairing not given here; also: chlorin e6 photosensitizer on polymer)
Size [nm]: 22.4
//
substance: P-CM2-Cy5: Cy5 labeled P-CM2 (C(HPMA copolymer)YGGEVSALEKEVSALEKKNSALEKEVSALEKEVSALEK; also: Cy5 label on conjugate, position not given here)
Size [nm]: 19.8
//
substance: P-BS: HPMA copolymer-BS conjugate, ~6 BS grafts per polymer (LGASWHRPDKCCLGYQKRPLPA; not fully specified (residues 11, 12); also: about 6 peptides grafted on HPMA copolymer via cysteine-maleimide thioether links)
Size [nm]: 15.7
